Value source: patent EP2257297B1

Target: human MC5R (Homo sapiens, UniProt P33032)
Construct: purchased Perkin Elmer RBXMC5M400UA
Sequence (P33032 whole entry): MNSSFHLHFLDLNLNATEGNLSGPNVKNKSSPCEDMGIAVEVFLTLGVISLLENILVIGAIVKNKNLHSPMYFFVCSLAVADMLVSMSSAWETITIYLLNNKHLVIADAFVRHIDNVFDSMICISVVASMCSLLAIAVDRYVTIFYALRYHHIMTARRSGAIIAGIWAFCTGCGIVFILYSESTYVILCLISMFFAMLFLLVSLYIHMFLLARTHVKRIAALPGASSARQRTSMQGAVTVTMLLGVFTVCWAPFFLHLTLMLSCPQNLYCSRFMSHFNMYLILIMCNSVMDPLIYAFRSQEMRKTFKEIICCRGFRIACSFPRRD
Experiment: Human MC5R radioligand binding assay ([125I] NDP-MSH displacement, hMC5R membranes)
Settings: hMC5R assay as in Example 102; compounds tested as trifluoroacetate or hydrochloride salts, or as free base
Method: After incubation for 10 mins the phosphate buffer containing the iodine was added to NDP-MSH (10 ul at 1 mg/mL) in a separate eppendorf tube. This was incubated for a further 10 mins. Resuspended membranes were kept on ice until they were added to the wells of the plate. Assays were performed in 96 well polypropylene plates. […] Non-specific binding was determined with 3 mM NDP-MSH. […] Prepared filters were counted in cassettes in a Microbeta Trilux (Wallac) for 1 min. […]
pIC50: −log10 of the molar value.
parameter: pIC50

Below: 5 molecules and their reported pIC50.
{"molecule": "CC(C)NCCC[C@@H]1N[C@H](CNC(=O)c2ccc3ccccc3c2)CCN(CC(c2ccccc2)c2ccccc2)C1=O [Compound 65]", "assayed-system": "human MC5R (Homo sapiens, UniProt P33032)", "pIC50": "> 7.00"}
{"molecule": "N=C(N)NCCC[C@@H]1N[C@H](CNC(=O)Cc2ccc3ccccc3c2)CCN(CC(c2ccccc2)c2ccccc2)C1=O [Compound 110]", "assayed-system": "human MC5R (Homo sapiens, UniProt P33032)", "pIC50": "> 6.00"}
{"molecule": "CC(C)NCC[C@@H]1N[C@H](CCNC(=O)c2ccc(Cl)c(Cl)c2)CCN(CC(c2ccccc2)c2ccccc2)C1=O [Compound 362]", "assayed-system": "human MC5R (Homo sapiens, UniProt P33032)", "pIC50": "> 6.00"}
{"molecule": "NCCC[C@@H]1N[C@H](CNC(=O)/C=C/c2ccc(F)cc2F)CCN(CC(c2ccccc2)c2ccccc2)C1=O [Compound 233]", "assayed-system": "human MC5R (Homo sapiens, UniProt P33032)", "pIC50": "> 7.00"}
{"molecule": "CCC(CN1CC[C@@H](CNC(=O)c2ccc(Cl)c(Cl)c2)N[C@@H](CCN)C1=O)c1ccccc1 (some centres unmarked) [Compound 369]", "assayed-system": "human MC5R (Homo sapiens, UniProt P33032)", "pIC50": "> 6.00"}

For NC[C@@H]1N[C@H](CNC(=O)c2ccc(Cl)c(Cl)c2)CCN(Cc2cc(Cl)cc(Cl)c2)C1=O [Compound 364] the molecule record lists pIC50 as > 6.00

Consider N=C(N)NCCC[C@@H]1N[C@H](CNC(=O)/C=C/c2ccc(F)cc2)CCN(CC(c2ccccc2)c2ccccc2)C1=O [Compound 199] . Its measured pIC50 is > 7.00

The molecule listed as N=C(N)NCCC[C@@H]1N[C@H](CNC(=O)c2ccc3ccccc3c2)CCN(CCc2ccccc2)C1=O [Compound 182] has a reported pIC50 of > 6.00

pIC50 for CC(C)N(CC[C@@H]1N[C@H](CCNC(=O)c2ccc(Cl)c(Cl)c2)CCN(CC(c2ccccc2)c2ccccc2)C1=O)C(C)C [Compound 363] is > 5.00

Reported pIC50 ( N=C(N)NCCC[C@@H]1N[C@H](CNC(=O)c2cnc3ccccc3c2)CCN(CC(c2ccccc2)c2ccccc2)C1=O [Compound 112] ) = > 7.00

Value of measured pIC50 for the entry NCC[C@@H]1N[C@H](CNC(=O)c2ccc(Cl)c(Cl)c2)CCN(CC(c2ccccc2)c2ccccc2)C1=O [Compound 280] : > 6.00

Query O=C(/C=C/c1ccc(Cl)cc1)NC[C@@H]1CCN(Cc2cc(Cl)cc(Cl)c2)C(=O)[C@H](CN2CCCCC2)N1 [Compound 368] yields pIC50 of > 7.00

Cc1cc(C)n(-c2ccc(C(=O)NC[C@@H]3CCN(CC(c4ccccc4)c4ccccc4)C(=O)[C@H](CCCN)N3)cc2)n1 [Compound 243] has a reported pIC50 of > 6.00

Value of measured pIC50 for the entry NCCC[C@@H]1N[C@H](CNC(=O)/C=C/c2ccc(Br)cc2)CCN(CC(c2ccccc2)c2ccccc2)C1=O [Compound 260] : > 7.00
